Numbers sourced from the supplement of paper PMC3724861.

Tested on: Caupolican (Caup) homeodomain DNA-binding domain
Sequence: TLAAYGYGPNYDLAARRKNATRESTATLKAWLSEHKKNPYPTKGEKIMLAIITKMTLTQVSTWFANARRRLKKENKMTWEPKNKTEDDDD
Assay Text: PBM E-score (8-mer, recovered from the published 9-mer minima) (E-score (dimensionless, -0.5 to 0.5)); higher = stronger relative binding preference, active = 0.31 or more
This excerpt belongs to a sample that is enriched for hits. No count for the full screen is at hand.
Outcome codes: active, inactive

> print(dat)
    record.sequence  answer.label
 1         AATTACAA        active
 2         GTGTTCGA      inactive
 3         CCTCACAA      inactive
 4         AATTACAG      inactive
 5         ACAAGGAT        active
 6         CATTACAA      inactive
 7         GATTACTA      inactive
 8         GCAAGTAC      inactive
 9         AGCGACAC      inactive
10         CATGTAAC        active
11         CTTCCGCA      inactive
12         CAGACTGC      inactive
13         CTGTTCAC      inactive
14         GATTACAA        active

* * *

Tested on: Caupolican (Caup) homeodomain DNA-binding domain
Sequence: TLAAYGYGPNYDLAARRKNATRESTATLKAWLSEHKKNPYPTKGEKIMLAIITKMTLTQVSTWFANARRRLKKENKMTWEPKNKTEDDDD
Assay Text: PBM E-score (8-mer, recovered from the published 9-mer minima) (E-score (dimensionless, -0.5 to 0.5)); Drosophila protein; higher = stronger relative binding preference, active = 0.31 or more
This excerpt belongs to a sample that is enriched for hits. The hit rate among all sequences tested is not known here.
Possible outcomes: active, inactive

> print(dat)
    record.sequence  answer.label
 1         AATCTCAG      inactive
 2         AAGATCGA      inactive
 3         CGTACATA        active
 4         AACATGCC      inactive
 5         CATACAAG      inactive
 6         AGTTAAGC      inactive
 7         GCATCGTA      inactive
 8         GTTAAAGA      inactive
 9         CATTCATA      inactive
10         ATTGCGGC      inactive
11         CACCTACA      inactive
12         CGTACAAA      inactive
13         ATCATGCA      inactive
14         CTTAGACA      inactive
15         AACGACTG      inactive
16         AACAAGCA      inactive
17         ATTATGTG      inactive
18         GCAAGACA      inactive
19         GACAAGCC      inactive
20         AAGTTACC      inactive
21         ACAAGGTA        active
22         AAGAACAA      inactive
23         ACAAGGTC      inactive
24         ACCGGTTA      inactive
25         ATCCAGAC      inactive
26         ATTATCGC      inactive
27         CACATGCA      inactive
28         AACATGCT        active
29         CTCTTTTC      inactive
30         CTTATGTC      inactive
31         ATGTTAAT        active
32         ACCTCGCC      inactive
33         AGAACGCC      inactive
34         ATGTTACA        active
35         ACGTTCAT      inactive
36         CACGAACA      inactive
37         GGCAAGCA      inactive
38         TCCATGCA      inactive
39         TCCGCAAA      inactive
40         CCCATGCA      inactive
41         TTGTTAAA      inactive
42         GTTTCAAA      inactive
43         GCAAGGTA      inactive
44         CCGGCTCA      inactive
45         AGTACAAT      inactive
46         GAGAACAC      inactive
47         ACAAGATC      inactive
48         ATGTTAAA        active
49         CGATATTA      inactive
50         CACAAGCA      inactive
51         ACAAGACA        active
52         ACGTTACA      inactive
53         CGGTTCAA      inactive
54         ATGTGTGG      inactive
55         CCAGCCGG      inactive
56         AATTGAGT      inactive
57         CTAGGAGC      inactive
58         GTGTTAAC      inactive
59         GAAGAACA      inactive
60         AGTACAAC      inactive
61         ATTTCTCA      inactive
62         AGTACATA        active
63         GGTACAAA      inactive
64         GTGTGTTA      inactive
65         GATAAGGA      inactive
66         GTTATGTA      inactive
67         GGTACATA      inactive
68         TCACAAGA      inactive
69         AGCTGGTG      inactive
70         GAGTTTGA      inactive
71         CCACCGGC      inactive
72         CGCATATA      inactive
73         GAGATGCA      inactive
74         CAAGAACA      inactive
75         ACAACGTA      inactive
76         CGTACAAC        active
77         CTGTTAAC      inactive
78         GACAAGCA        active
79         AAGGAATT      inactive
80         CGTACAGA      inactive
81         AAACGTTG      inactive
82         CCAAGATA      inactive
83         CTGTTAAA      inactive
84         ATGTGTTG        active
85         ACTCGGGA      inactive
